system: T1, purified HLA-B*5101 (human)
T1 construct: Purified MHC class I molecule incubated with human b2m
test_details: competition radioimmunoassay on purified HLA, radiolabeled standard peptide
assay_readout: IC50
The reply must contain the numeric value and, after it, the unit.

GET /value?item= LPSDFKTIL (Synthetic 9mer peptide of human telomerase reverse transcriptase) [hTRT peptide p1123 (LPSDFKTIL)] &field=IC50 returns 1620 nM
